Observed Ki for Matrix metalloproteinase-9 (Homo sapiens, UniProt P14780), reported per entry below.
Give bare numbers, in nM.

Illustrative cases are given below, each with its answer.
compound smiles | Ki / nM
O=C(CN(Cc1ccc([N+](=O)[O-])cc1)C(=S)NC(=O)c1ccccc1)NO | 1.4
O=C(CN(Cc1ccc([N+](=O)[O-])cc1)S(=O)(=O)C(F)(F)C(F)(F)C(F)(F)C(F)(F)C(F)(F)C(F)(F)C(F)(F)C(F)(F)F)NO | 1.3

Inquiry: For "O=C(CN(Cc1ccc([N+](=O)[O-])cc1)S(=O)(=O)c1ccc(Br)cc1)NO" , write its Ki.
Reply text: 21
